pIC50 overview
- tgt: GST-TIE2 (intracellular domains of human TIE2) (Homo sapiens, UniProt Q02763)
- Construct: made in house
- Sequence (Q02763 762-1104): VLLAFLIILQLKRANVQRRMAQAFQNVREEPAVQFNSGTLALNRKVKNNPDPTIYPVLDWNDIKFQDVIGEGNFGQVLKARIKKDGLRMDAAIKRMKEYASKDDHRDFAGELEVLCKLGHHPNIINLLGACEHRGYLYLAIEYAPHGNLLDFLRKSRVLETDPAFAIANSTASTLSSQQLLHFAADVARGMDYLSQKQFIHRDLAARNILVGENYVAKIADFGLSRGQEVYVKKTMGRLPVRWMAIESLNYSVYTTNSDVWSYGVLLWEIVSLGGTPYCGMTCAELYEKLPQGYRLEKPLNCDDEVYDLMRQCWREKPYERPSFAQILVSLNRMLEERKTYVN
- protocol description: TIE-2 Enzyme Assay (TIE2-E2), LANCE method
- Format: biochemical
- experimental conditions: read-out: TIE2 PIC50 TIE2-E2 assay
pIC50: −log10 of the molar value.

Solved cases (5 shown):
[[record]]
smiles_structure = "Cn1nc(-c2ccc(NC(=O)Nc3cc(C(F)(F)F)ccc3F)cc2)c2cnc(NCCN3CCNC3=O)nc21"
result = "7.00 to 7.40"

[[record]]
smiles_structure = "CC(C)n1nc(-c2ccc(NS(=O)(=O)c3cccc(Cl)c3Cl)cc2)c2cnc(NCCN3CCOCC3)nc21"
result = "6.00 to 7.00"

[[record]]
smiles_structure = "CC(=O)c1cccc(NC(=O)Nc2ccc(-c3nn(C)c4nc(NCCN5CCOCC5)ncc34)cc2)c1"
result = "5.00 to 6.00"

[[record]]
smiles_structure = "CCN(CC)CCCNc1ncc2c(-c3ccc(NC(=O)Nc4cc(C(F)(F)F)ccc4F)c(F)c3)nn(C)c2n1"
result = "≥ 7.40"

[[record]]
smiles_structure = "Cn1nc(-c2ccc(NC(=O)Nc3cc(C(F)(F)F)ccc3F)cc2)c2cnc(NCCCCO)nc21"
result = "≥ 7.40"


I have this compound here, Cn1nc(-c2ccc(NS(=O)(=O)c3cccc(Cl)c3Cl)cc2)c2cnc(NCCN3CCNC3=O)nc21 , and I need its recorded pIC50.
< 5.00

Consider next the compound Cn1nc(-c2ccc(NC(=O)Nc3cc(C(F)(F)F)ccc3F)cc2)c2cnc(NCCCNS(C)(=O)=O)nc21 in the same way.
7.00 to 7.40

----------
- tgt: TIE2 intracellular domain/c-fms extracellular domain (TIE2/c-fms) chimeric protein (Homo sapiens)
- Construct: fused on or other part: c-fms (CSF1R) extracellular domain in place of TIE2's own ectodomain; it serves as the capture handle for the anti-c-fms ELISA; P07333 (Macrophage colony-stimulating factor 1 receptor)
- Sequence (Q02763 whole entry, change not shown, the tested form may be a part): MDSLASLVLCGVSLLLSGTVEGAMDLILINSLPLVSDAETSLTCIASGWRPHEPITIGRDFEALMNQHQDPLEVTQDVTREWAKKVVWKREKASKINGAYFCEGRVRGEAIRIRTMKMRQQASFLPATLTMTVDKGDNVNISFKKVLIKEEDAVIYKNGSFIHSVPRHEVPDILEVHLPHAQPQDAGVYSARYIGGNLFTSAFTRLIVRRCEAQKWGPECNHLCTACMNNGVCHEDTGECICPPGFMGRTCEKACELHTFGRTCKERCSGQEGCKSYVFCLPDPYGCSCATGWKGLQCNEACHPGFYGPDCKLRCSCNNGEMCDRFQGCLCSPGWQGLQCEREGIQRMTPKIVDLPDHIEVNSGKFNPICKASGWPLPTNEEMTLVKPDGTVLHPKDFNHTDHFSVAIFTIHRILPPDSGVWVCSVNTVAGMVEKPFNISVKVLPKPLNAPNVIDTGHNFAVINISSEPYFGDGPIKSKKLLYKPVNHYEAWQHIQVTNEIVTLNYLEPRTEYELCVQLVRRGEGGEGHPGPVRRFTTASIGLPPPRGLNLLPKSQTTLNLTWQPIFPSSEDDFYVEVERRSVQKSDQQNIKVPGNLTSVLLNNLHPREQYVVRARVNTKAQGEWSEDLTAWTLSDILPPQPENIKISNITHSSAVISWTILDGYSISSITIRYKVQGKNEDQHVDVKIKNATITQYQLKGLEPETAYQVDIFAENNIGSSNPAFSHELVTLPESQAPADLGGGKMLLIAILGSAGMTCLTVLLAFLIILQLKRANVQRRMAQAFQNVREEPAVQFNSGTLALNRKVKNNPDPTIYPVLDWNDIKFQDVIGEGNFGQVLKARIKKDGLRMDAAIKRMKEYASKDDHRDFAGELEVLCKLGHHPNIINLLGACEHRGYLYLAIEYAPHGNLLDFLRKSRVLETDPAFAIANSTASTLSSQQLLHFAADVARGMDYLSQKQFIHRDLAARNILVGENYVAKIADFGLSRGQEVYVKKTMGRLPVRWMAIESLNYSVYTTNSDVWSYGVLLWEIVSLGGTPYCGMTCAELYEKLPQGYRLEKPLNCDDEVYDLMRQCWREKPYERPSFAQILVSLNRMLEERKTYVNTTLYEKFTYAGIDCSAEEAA
- protocol description: TIE-2 Autophosphorylation Assay (TIE2-C)
- experimental conditions: TIE2/c-fms expressing mouse 3T3 cells
pIC50: −log10 of the molar value.
recorded metric: pIC50

[[record]]
smiles_structure = "Cn1nc(-c2ccc(NC(=O)Nc3cc(C(C)(C)C)on3)c(F)c2)c2cnc(NCCN3CCOCC3)nc21"
recorded_metric = "pIC50"
result = "6.52 to 7.00"

[[record]]
smiles_structure = "Cn1nc(-c2ccc(NC(=O)Nc3cc(C(F)(F)F)ccc3F)cc2)c2cnc(NCCc3c[nH]cn3)nc21"
recorded_metric = "pIC50"
result = "≤ 6.52"

[[record]]
smiles_structure = "CN1CCN(CCCNc2ncc3c(-c4ccc(NC(=O)Nc5cc(C(F)(F)F)ccc5F)cc4)nn(C)c3n2)CC1"
recorded_metric = "pIC50"
result = "≤ 6.52"

[[record]]
smiles_structure = "Cn1nc(-c2ccc(NC(=O)Nc3cc(C(F)(F)F)ccc3F)cc2)c2cnc(NCCCCN3CCCC3)nc21"
recorded_metric = "pIC50"
result = "6.52 to 7.00"

[[record]]
smiles_structure = "CN1CCN(CCCNc2ncc3c(-c4ccc(NC(=O)Nc5cc(C(C)(C)C)on5)c(F)c4)nn(C)c3n2)CC1"
recorded_metric = "pIC50"
result = "6.52 to 7.00"


Which pIC50 reading was recorded for the compound Cn1nc(-c2ccc(NC(=O)Nc3cc(C(F)(F)F)ccc3F)cc2)c2cnc(NCCN3CCNC3=O)nc21 ?
≤ 6.52

Same question, CCN(CC)CCCNc1ncc2c(-c3ccc(NC(=O)Nc4cc(C(F)(F)F)ccc4F)cc3)nn(C)c2n1 this time
≤ 6.52

Provenance of the data: patent US7217710B2
